Test system: R275C/beta1
Assay: modulators of BK channel variants, profiling panel, selectivity assay, cell-based, U2OS BacMam, thallium flux, beta subunits (AID 1259406);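 further: initial slope of Thallos dye fluorescence rise after thallium is added; log ratio against the mean of 0.3% DMSO vehicle wells on the same plate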
Settings: at 30 µM
Catalogue of compounds with associated log fold change Tl+ flux
Reply with the value as a number alone.

CNCCC=C1c2ccccc2CCc2ccccc21 = 0.165
CC(C)NCC(O)COc1cccc2ccccc12 (stereo unspecified) = 0.0491
Cc1occc(=O)c1O = -0.0131
C[N+]1(C)CCCC(OC(=O)C(O)(c2ccccc2)c2ccccc2)C1 (stereo unspecified) = 0.0318
CC(=O)OCC(=O)[C@@]1(O)CC[C@H]2[C@@H]3CCC4=CC(=O)CC[C@]4(C)[C@H]3[C@@H](O)C[C@@]21C = -0.0363

Input line: log fold change Tl+ flux for CC(C)NCC(O)COc1cccc2[nH]ccc12 (stereo unspecified) ?
Output line: 0.00683

Input line: Also CCCC1O[C@@H]2C[C@H]3[C@@H]4CCC5=CC(=O)C=C[C@]5(C)[C@H]4[C@@H](O)C[C@]3(C)[C@]2(C(=O)CO)O1 (stereo partly specified) ?
Output line: 0.133

Input line: Also CC(CCc1ccccc1)NCC(O)c1ccc(O)c(C(N)=O)c1 (stereo unspecified) ?
Output line: 0.0332

Input line: Also "CN(C)c1nc(N(C)C)nc(N(C)C)n1" ?
Output line: -0.054
